Would you mind telling me the reported % Inhibition of each entry?
assay_target: Calf polymerase alpha (Bos taurus, UniProt A0AAA9TD94)
Construct: purchased Replizyme Ltd (Heslington, York, UK)
Sequence (A0AAA9TD94 1-1441): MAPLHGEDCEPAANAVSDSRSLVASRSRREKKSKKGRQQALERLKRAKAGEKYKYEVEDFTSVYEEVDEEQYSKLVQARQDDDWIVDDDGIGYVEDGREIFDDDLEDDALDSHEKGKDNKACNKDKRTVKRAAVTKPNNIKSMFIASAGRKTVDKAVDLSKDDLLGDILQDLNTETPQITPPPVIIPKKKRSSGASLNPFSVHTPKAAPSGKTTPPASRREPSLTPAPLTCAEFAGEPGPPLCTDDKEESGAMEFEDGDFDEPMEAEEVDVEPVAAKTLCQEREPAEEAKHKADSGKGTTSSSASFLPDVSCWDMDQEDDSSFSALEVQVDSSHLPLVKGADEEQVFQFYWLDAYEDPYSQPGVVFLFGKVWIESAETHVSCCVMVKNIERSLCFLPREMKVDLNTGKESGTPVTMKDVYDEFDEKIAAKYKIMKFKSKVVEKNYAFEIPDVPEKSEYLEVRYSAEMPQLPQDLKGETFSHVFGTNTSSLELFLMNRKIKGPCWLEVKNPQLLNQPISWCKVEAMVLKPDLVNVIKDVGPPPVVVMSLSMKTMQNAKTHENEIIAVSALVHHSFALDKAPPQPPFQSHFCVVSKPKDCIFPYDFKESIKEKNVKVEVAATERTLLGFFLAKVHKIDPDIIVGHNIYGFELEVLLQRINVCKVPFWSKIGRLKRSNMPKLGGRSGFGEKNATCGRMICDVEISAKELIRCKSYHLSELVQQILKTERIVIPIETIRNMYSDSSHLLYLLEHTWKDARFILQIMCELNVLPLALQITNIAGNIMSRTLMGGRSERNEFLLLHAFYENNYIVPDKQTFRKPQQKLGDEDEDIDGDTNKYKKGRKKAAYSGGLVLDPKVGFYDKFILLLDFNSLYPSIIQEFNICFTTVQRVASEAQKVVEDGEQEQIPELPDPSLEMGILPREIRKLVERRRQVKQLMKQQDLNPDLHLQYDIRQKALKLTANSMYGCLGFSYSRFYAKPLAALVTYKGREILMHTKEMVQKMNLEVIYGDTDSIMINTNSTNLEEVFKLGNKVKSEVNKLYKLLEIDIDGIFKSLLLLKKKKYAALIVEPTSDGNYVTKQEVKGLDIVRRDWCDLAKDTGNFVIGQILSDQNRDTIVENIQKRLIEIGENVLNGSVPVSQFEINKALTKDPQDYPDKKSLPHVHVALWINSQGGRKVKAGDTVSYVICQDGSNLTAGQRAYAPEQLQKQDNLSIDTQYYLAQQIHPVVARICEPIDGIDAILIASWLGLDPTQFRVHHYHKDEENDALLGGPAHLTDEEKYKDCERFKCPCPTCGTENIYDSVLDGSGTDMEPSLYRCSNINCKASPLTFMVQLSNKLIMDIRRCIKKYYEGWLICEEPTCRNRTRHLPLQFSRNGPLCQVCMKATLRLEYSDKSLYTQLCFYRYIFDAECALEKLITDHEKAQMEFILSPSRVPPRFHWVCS
assay_protocol: Calf polymerase alpha inhibition (Replizyme kit)
Type: biochemical
assay_setup: at 10 μM, single point screening
Answers are plain numbers, in %.

As a guide, the following entries are already answered.
| compound | assay_target | readout_number |
| --- | --- | --- |
| CC1CCC(NC(=O)[C@H](CCCCN)NC(=O)Nc2ccc(OCc3ccccc3)cc2)CC1 (stereo partly drawn) [Compound 264] | Calf polymerase alpha (Bos taurus, UniProt A0AAA9TD94) | 35 |
| Cc1ccc(NC(=O)[C@H](CCCCN)NC(=O)Nc2ccc(OCc3ccncc3)cc2)cc1 [Compound 279] | Calf polymerase alpha (Bos taurus, UniProt A0AAA9TD94) | 15 |
| Cc1ccc(NC(=O)CN(CCCCN)C(=O)Nc2ccc(OCc3ccccc3)cc2)cc1 [Compound 278] | Calf polymerase alpha (Bos taurus, UniProt A0AAA9TD94) | 101 |
| CNCC(=O)NCCC[C@H](NC(=O)OCC1c2ccccc2-c2ccccc21)C(=O)Nc1ccc(C)cc1 [Compound 223] | Calf polymerase alpha (Bos taurus, UniProt A0AAA9TD94) | 22 |
| Cc1ccc(NC(=O)[C@H](CCCC[N+](C)(C)C)NC(=O)OCC2c3ccccc3-c3ccccc32)cc1 [Compound 110] | Calf polymerase alpha (Bos taurus, UniProt A0AAA9TD94) | 62.5 |

The following compounds each have a reported value; give each one's % Inhibition.
1. Cc1ccc(NC(=O)[C@H](CCCCN)NC(=O)Nc2ccc(OCc3ccccc3F)cc2)cc1 [Compound 248]
2. Cc1ccc(NC(=O)[C@H](CCCCN)NC(=O)Nc2ccc(CCc3ccccc3)cc2)cc1 [Compound 243]
3. Cc1ccc(NC(=O)[C@H](Cc2ccc(CN)cc2)NC(=O)Nc2ccc(-c3ccccc3)cc2)cc1 [Compound 145]
4. Cc1ccc(NC(=O)[C@H](CCCCN)NC(=O)Nc2ccc(OCc3ccc(F)cc3)cc2)cc1 [Compound 250]
5. Cc1ccc(NC(=O)[C@H](CCCCN)NC(=O)C2c3ccccc3-c3ccccc32)cc1 [Compound 52]
6. Cc1ccc(NC(=O)C[C@H](CCCCN)NC(=O)Nc2ccc3c(c2)Cc2ccccc2-3)cc1 [Compound 247]

Given back:
1. 61
2. 0
3. 102
4. 57
5. 13
6. 87

====

assay_target: Calf polymerase alpha (Bos taurus, UniProt A0AAA9TD94)
Construct: purchased Replizyme Ltd (Heslington, York, UK)
assay_protocol: Calf polymerase alpha inhibition (Replizyme kit)
Format: biochemical
assay_setup: at 10 μM, single point screening
assay_readout: % Inhibition (%)
Answers are plain numbers, in %.

Hey, can you go through the list below and give me % Inhibition for every item?
1. Cc1ccc(NC(=O)[C@H](CCCCN)NC(=O)Nc2cccc(Cc3ccccc3)c2)cc1 [Compound 212]
2. Cc1ccc(NC(=O)[C@H](CCCCN)NC(=O)Cc2ccc(-c3ccccc3)cc2)cc1 [Compound 50]
3. Cc1ccc(NC(=O)[C@H](CCCCN)NCc2ccc(NC(=O)Nc3ccncc3)cc2)cc1 [Compound 262]
4. Cc1ccc(NC(=O)[C@H](CCCN)NC(=O)Nc2ccc(OCc3ccccc3)cc2)cc1 [Compound 189]

Given back:
97
71
102
76

Source of measurements: patent US20080171783A1
